# study.system: 5-HT1F (Homo sapiens, UniProt P30939, F310A)
# Sequence (P30939 whole entry F310A): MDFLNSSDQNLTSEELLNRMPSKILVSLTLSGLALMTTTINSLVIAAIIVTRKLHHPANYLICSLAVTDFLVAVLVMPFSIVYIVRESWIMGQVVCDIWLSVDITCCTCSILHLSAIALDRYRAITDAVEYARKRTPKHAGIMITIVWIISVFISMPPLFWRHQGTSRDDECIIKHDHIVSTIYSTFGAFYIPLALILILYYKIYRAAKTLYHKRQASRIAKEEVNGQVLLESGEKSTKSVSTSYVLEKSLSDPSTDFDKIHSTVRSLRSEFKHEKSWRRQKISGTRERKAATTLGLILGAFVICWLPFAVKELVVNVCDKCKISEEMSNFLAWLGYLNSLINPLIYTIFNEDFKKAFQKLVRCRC
# protocol: NanoBiT Gi recruitment assay
measure.name: EC50

Prompt line: Query: EC50; subject: `CN1CCC(C(=O)c2cccc(NC(=O)c3c(F)cc(F)cc3F)n2)CC1`
Response line: > 100 µM

---

# study.system: 5-HT1F (Homo sapiens, UniProt P30939)
# Sequence (P30939 whole entry): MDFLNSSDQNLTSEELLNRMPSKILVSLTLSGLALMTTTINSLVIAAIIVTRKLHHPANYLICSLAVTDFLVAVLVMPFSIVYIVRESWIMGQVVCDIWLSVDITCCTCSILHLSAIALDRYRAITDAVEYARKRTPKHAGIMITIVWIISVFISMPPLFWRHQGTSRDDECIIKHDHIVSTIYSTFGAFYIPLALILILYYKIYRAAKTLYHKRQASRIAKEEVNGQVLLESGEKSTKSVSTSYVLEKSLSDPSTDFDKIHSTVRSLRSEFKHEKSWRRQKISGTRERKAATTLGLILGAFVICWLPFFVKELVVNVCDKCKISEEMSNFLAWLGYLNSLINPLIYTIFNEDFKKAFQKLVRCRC
# protocol: NanoBiT Gi recruitment assay
# Type: cell-based
measure.name: pEC50
Answers are plain numbers, as −log10 of the molar value.

Prompt line: Query: pEC50; subject: CN1CCC(C(=O)c2cccc(NC(=O)c3c(F)cc(F)cc3F)n2)CC1 [lasmiditan]
Response line: 7.52
